- Tested on: Rattus norvegicus
- protocolDescription: Compound tested in vivo for antagonist potency against oxytocin (OT)-induced in rats by id administration
- Type: functional
attributeMeasured: AD50 (mg/kg)

recordSmiles	assaySystem	unitTag	limitOperator	assayValue
O=C(Cc1ccc(N2CCOCC2)cc1OCC(F)(F)F)N1CCC(N2C(=O)OCc3ccccc32)CC1	Rattus norvegicus	mg/kg	=	0.97
CC(=O)N1CCC(Oc2ccc(CC(=O)N3CCC(N4C(=O)OCc5ccccc54)CC3)c(OCC(F)(F)F)c2)CC1	Rattus norvegicus	mg/kg	=	0.64
O=C(Cc1ccccc1OCC(F)(F)F)N1CCC(N2C(=O)OCc3ccccc32)CC1	Rattus norvegicus	mg/kg	>	10
O=C(Cc1ccc(OC2CCN(CC3CC3)CC2)cc1OCC(F)(F)F)N1CCC(N2C(=O)OCc3ccccc32)CC1	Rattus norvegicus	mg/kg	=	22
COc1cc(OC2CCN(C(C)=O)CC2)ccc1C(=O)N1CCC(N2C(=O)OCc3ccccc32)CC1	Rattus norvegicus	mg/kg	=	2.5

* * *

- assaySystem: Vasopressin V2 receptor (Homo sapiens, UniProt P30518)
- Sequence (P30518 whole entry): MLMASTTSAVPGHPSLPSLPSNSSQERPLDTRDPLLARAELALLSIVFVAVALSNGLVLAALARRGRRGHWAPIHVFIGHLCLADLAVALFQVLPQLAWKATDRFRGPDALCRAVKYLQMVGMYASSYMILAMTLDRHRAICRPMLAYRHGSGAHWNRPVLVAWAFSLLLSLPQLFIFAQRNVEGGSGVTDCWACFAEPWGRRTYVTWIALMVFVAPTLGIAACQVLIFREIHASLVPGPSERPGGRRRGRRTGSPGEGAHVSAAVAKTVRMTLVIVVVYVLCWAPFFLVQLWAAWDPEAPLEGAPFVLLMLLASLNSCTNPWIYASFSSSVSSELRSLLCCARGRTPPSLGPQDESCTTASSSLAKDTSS
- protocolDescription: Binding affinity towards cloned human Vasopressin V2 receptor by using functional assay

recordSmiles	assaySystem	Ki (nM)
CC(=O)N1CCC(Oc2ccc(CC(=O)N3CCC(N4C(=O)OCc5ccccc54)CC3)c(OCC(F)(F)F)c2)CC1	Vasopressin V2 receptor (Homo sapiens, UniProt P30518)	130

* * *

- protocolDescription: Compound was evaluated in vivo in rat for the plasma half-life at a iv dose of 3 mg/kg and oral dose of 10 mg/kg and experiment by using concentration vs time curve
- Assay type: ADME, organism-based
Some compounds, each annotated with its measured half-life.

recordSmiles	half-life, h
O=C(Cc1ccc(OC2CCN(CC3CC3)CC2)cc1OCC(F)(F)F)N1CCC(N2C(=O)OCc3ccccc32)CC1	1.7
O=C(Cc1ccc(OCCN2CCOCC2)cc1OCC(F)(F)F)N1CCC(N2C(=O)OCc3ccccc32)CC1	2.8
CC(=O)N1CCC(Oc2ccc(CC(=O)N3CCC(N4C(=O)OCc5ccccc54)CC3)c(OCC(F)(F)F)c2)CC1	0.27

* * *

A short record of Ki observed with Oxytocin receptor (Rattus norvegicus) follows.
Sequence (P70536 whole entry): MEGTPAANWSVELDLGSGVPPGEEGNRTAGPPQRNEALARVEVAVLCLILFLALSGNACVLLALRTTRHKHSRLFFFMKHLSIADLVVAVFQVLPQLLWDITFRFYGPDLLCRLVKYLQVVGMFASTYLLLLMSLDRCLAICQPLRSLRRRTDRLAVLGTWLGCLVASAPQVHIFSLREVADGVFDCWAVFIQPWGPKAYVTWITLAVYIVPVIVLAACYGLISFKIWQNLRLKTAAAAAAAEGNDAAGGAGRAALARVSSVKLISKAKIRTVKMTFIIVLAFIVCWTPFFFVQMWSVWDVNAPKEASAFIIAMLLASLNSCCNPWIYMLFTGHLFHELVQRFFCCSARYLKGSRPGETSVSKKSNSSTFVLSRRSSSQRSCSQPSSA

recordSmiles	Ki, nM
COc1ccc(CC(=O)N2CCC(N3C(=O)OCc4ccccc43)CC2)c(OC)c1	37
O=C(Cc1ccc(OCCN2CCOCC2)cc1OCC(F)(F)F)N1CCC(N2C(=O)OCc3ccccc32)CC1	2.1
CC(=O)N1CCC(Oc2ccc(CC(=O)N3CCC(N4C(=O)OCc5ccccc54)CC3)c(OCC(F)(F)F)c2)CC1	0.71
CC(=O)N1CCC(Oc2ccc(CC(=O)N3CCC(N4C(=O)OCc5ccccc54)CC3)c(OC(F)(F)F)c2)CC1	2.8
COc1cc(OC2CCN(C(C)=O)CC2)ccc1CC(=O)N1CCC(N2C(=O)OCc3ccccc32)CC1	36
COc1ccc(CCC(=O)N2CCC(N3C(=O)OCc4ccccc43)CC2)c(OC)c1	520
O=C(Cc1ccc(N2CCOCC2)cc1OCC(F)(F)F)N1CCC(N2C(=O)OCc3ccccc32)CC1	0.6
O=C(Cc1ccccc1OCC(F)(F)F)N1CCC(N2C(=O)OCc3ccccc32)CC1	6
O=C(Cc1ccc(OC2CCN(CC3CC3)CC2)cc1OCC(F)(F)F)N1CCC(N2C(=O)OCc3ccccc32)CC1	1.2
CC(=O)N1CCC(Oc2ccc(CC(=O)N3CCC(N4C(=O)OCc5ccccc54)CC3)cc2)CC1	1600

* * *

- protocolDescription: Compound was evaluated for pharmacokinetic property in rats after an oral dose of 10 mg/kg and the value was reported as oral bioavailability (F)
- Assay type: ADME, organism-based
- testContext: rat, in vivo
attributeMeasured: bioavailability (%)

recordSmiles	unitTag	assayValue
CC(=O)N1CCC(Oc2ccc(CC(=O)N3CCC(N4C(=O)OCc5ccccc54)CC3)c(OCC(F)(F)F)c2)CC1	%	19

* * *

- protocolDescription: Oral bioavailability in rat (dose 20 mg/kg)
- Format: ADME, organism-based
- testContext: in vivo

recordSmiles	bioavailability
O=C(Cc1ccc(OC2CCN(CC3CC3)CC2)cc1OCC(F)(F)F)N1CCC(N2C(=O)OCc3ccccc32)CC1	45%
CC(=O)N1CCC(Oc2ccc(CC(=O)N3CCC(N4C(=O)OCc5ccccc54)CC3)c(OCC(F)(F)F)c2)CC1	19%
O=C(Cc1ccc(OCCN2CCOCC2)cc1OCC(F)(F)F)N1CCC(N2C(=O)OCc3ccccc32)CC1	31%

* * *

- assaySystem: Vasopressin V1a receptor (Rattus norvegicus)
- Sequence (P30560 whole entry): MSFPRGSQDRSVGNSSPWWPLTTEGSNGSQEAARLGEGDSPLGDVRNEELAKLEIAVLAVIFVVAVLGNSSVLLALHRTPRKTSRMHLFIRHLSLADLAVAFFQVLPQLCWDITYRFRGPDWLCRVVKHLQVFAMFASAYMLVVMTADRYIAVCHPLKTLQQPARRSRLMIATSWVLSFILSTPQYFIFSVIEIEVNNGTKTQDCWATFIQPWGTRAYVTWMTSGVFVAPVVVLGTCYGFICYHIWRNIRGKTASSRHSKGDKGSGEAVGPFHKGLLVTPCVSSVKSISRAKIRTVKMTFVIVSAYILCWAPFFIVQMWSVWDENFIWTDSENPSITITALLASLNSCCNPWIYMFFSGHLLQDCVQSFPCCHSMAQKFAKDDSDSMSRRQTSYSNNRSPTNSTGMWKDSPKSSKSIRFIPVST
- protocolDescription: Binding affinity towards rat liver Vasopressin V1a receptor by using functional assay
pKi: −log10 of the molar value.

recordSmiles	assaySystem	pKi
CC(=O)N1CCC(Oc2ccc(CC(=O)N3CCC(N4C(=O)OCc5ccccc54)CC3)c(OCC(F)(F)F)c2)CC1	Vasopressin V1a receptor (Rattus norvegicus)	8.70

* * *

- assaySystem: UniProt:P37288
- Sequence (P37288 whole entry): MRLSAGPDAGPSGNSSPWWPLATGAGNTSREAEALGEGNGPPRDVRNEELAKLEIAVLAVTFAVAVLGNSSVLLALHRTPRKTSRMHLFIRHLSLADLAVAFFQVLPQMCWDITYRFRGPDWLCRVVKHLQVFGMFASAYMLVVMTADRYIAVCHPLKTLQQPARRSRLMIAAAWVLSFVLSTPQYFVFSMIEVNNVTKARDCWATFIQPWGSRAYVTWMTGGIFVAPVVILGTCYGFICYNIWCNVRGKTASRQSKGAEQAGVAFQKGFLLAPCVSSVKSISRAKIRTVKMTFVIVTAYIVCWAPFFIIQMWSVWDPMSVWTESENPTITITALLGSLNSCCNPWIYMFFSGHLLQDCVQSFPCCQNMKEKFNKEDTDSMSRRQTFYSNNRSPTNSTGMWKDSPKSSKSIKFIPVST
- protocolDescription: Binding affinity towards human Vasopressin V1a receptor by using functional assay
pKi: −log10 of the molar value.

recordSmiles	pKi
CC(=O)N1CCC(Oc2ccc(CC(=O)N3CCC(N4C(=O)OCc5ccccc54)CC3)c(OCC(F)(F)F)c2)CC1	6.13
